- target_or_test_system: T1, human hepcidin-25 (human, not fully specified)
- T1 construct: also called human mature hepcidin
- T1 peptide: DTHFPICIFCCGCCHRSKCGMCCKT
- measurement_notes: SPR (BIAcore), Mab captured on protein A, human hepcidin-25 injected, 25 C
measure: kon

Looking up Mab 3.12 (antibody, human IgG4 S228P, kappa, V domains shown) VH: QVQLVQSGAEVKKPGSSVKVSCKASGYTFLIYPISWVRQAPGQGLEWMGNFHPYLGVTNYLEKFKGRVTITADKSTSTAYMELSSLRSEDTAVYYCARGGTGSFDYWGQGTTVTVSS VL: DIQMTQSPSSLSASVGDRVTITCSASSRVSSTYLFWYQQKPGKAPKLLIYRTSTLTSGVPSRFSGSGSGTDFTLTISSLQPEDFATYYCQQWSGYPFVFGGGTKVEIKR , I see its kon listed as 3.68e+06 M⁻¹ s⁻¹

Looking up Mab 3.23 (antibody, human IgG4 S228P, kappa, V domains shown) VH: QVQLVQSGAEVKKPGSSVKVSCKASGYTFLIYPISWVRQAPGQGLEWMGNFHPYLGVTNYVEKFKGRVTITADKSTSTAYMELSSLRSEDTAVYYCARGGTGSFDYWGQGTTVTVSS VL: DIQMTQSPSSLSASVGDRVTITCSASSRVSSTYLFWYQQKPGKAPKLLIYRTSPLASGVPSRFSGSGSGTDFTLTISSLQPEDFATYYCQQWSGYPFVFGGGTKVEIKR , I see its kon listed as 6.2e+06 M⁻¹ s⁻¹

Source: patent US20090136495A1
